Substrate: CC(C)=CCC/C(C)=C/CC/C(C)=C/CO[P@@](=O)(O)OP(=O)(O)O
Experiment: purified protein
Format: biochemical, Coniophora puteana
Settings: 25 °C, FPP 0-70 µM in methanol, 0.8–1.2 µM enzyme
READOUT NAME: kcat/Km (M⁻¹ s⁻¹)

INSERT INTO assay_data (protein, test_value) VALUES
  ('Copu9 (Coniophora puteana RWD-64-598 SS2; G194A) (protein, full-length, codon-optimized, N-terminal hexa-His tag (pET-M11), expressed in E. coli BL21 RIL DE3; homodimer; 13 N-terminal residues not visible in crystal) MSPTATFTTTSSEENAPTKFILPDLVSDCTYPLLLNDNCEPVARASEQWLIAGARLQEPRRTKFMGLLAGELTAACYPHADASHLRVCVDFMNWLFNMDDWLDDFDVDDTWGMRHCCLGAFRDPVGFETDKLGGLMSKSFFSRFRQDGGPGCTERFIHTMDLFFIAVAQQAGDRANGITPDLESYITVRRDTSACKPCFALIEYAAGIDLPDHVIYHPTLAAMEEATNDLVTWSNDIFSYNKEQVTDDTHNMIPVLMRERGLDLQGAVDFVGRLCKGTIERFETERARLPSWGPELDAQVQTYIEGLQNWIVGSLHWSFDSHRYFGKDGHAVKKHRIVKLLPKRVPQQA', 5140);
